Just for reference, ChEMBL document CHEMBL5528082 is where these values come from.

Tested on: Dihydrofolate reductase (Staphylococcus aureus)
Conditions: dose 100.0 nM
value-kind: inhibition (%)
Give the quantity in %, number only.

- smiles-code: "COc1cc(C(C)C)c(Oc2cnc(N)nc2N)cc1-c1ccc2ccccc2c1"
  inhibition [%]: 80.8

Which measured inhibition value corresponds to COc1cc(C(C)C)c(Oc2cnc(N)nc2N)cc1-c1ccc2c(c1)OCCO2 ? 27.2

What does the data say about its inhibition? Entry: COc1cc(C(C)C)c(Oc2cnc(N)nc2N)cc1-c1ccc(O)cc1 72.3

Item under review: CC(C)c1ccc(-c2cc(Oc3cnc(N)nc3N)c(C(C)C)cc2OCC2CC2)cc1 . Reported inhibition? 75.4

Which measured inhibition value corresponds to CC(C)c1cc(OCC2CC2)c(I)cc1Oc1cnc(N)nc1N ? 47.4
